Values from ChEMBL document CHEMBL1125084

Assign Ki to each entry below.
tested_system: GABA-A receptor; anion channel
test_details: Displacement of [3H]flunitrazepam from GABA-A Benzodiazepine receptor of rat brain membranes
Type: cell membranes, Membrane
Give bare numbers, in µM.

The following molecules each have a reported value; give each one's Ki.
1. O=c1c2cnc3c4ccccc4sc3c2[nH]n1-c1ccc(Cl)cc1
2. Cc1ccc2c(ncc3c(=O)n(-c4ccc(Cl)cc4)[nH]c32)n1
3. Cn1c2c(cnc3ccsc32)c(=O)n1-c1ccc(Cl)cc1
4. Cn1cc2ccc3ncc4c(=O)n(-c5ccc(Cl)cc5)[nH]c4c3c2n1
5. Cn1cc2c(ccc3ncc4c(=O)n(-c5ccc(Cl)cc5)[nH]c4c32)n1
6. Oc1c2cnc3cscc3c2nn1-c1ccc(Cl)cc1
7. Cc1nc2ccsc2c2[nH]n(-c3ccc(Cl)cc3)c(=O)c12

1. 0.81
2. 11
3. 2.6
4. 0.00029
5. 0.00046
6. 0.00032
7. 1

The following molecules each have a reported value; give each one's Ki.
1. CCc1cc2c(ncc3c(=O)n(-c4ccc(Cl)cc4)[nH]c32)s1
2. Cc1[nH]sc2ncc3c(=O)n(-c4ccc(Cl)cc4)nc3c12
3. O=C1C2C=Nc3ccccc3C2=NN1c1ccc(Cl)cc1 (stereo unspecified)
4. Cn1ncc2ccc3ncc4c(=O)n(-c5ccc(Cl)cc5)[nH]c4c3c21
5. Cn1ncc2c3c(ccc21)ncc1c(=O)n(-c2ccc(Cl)cc2)[nH]c13
6. Cn1cnc2c3c(ccc21)ncc1c(=O)n(-c2ccc(Cl)cc2)[nH]c13
7. O=c1c2cnc3ccsc3c2[nH]n1-c1ccc(Cl)cc1
8. Cn1ncc2cc3c(cc21)ncc1c(=O)n(-c2ccc(Cl)cc2)[nH]c13

1. 0.0018
2. 0.099
3. 0.00035
4. 0.012
5. 0.0024
6. 0.0018
7. 0.00046
8. 0.014
